Data origin: patent US10508085B2

# tested-target: human TDO (TDO-expressing HEK293 cells) (Homo sapiens, UniProt P48775)
# Construct: expressed in transfected cells
# Sequence (P48775 whole entry): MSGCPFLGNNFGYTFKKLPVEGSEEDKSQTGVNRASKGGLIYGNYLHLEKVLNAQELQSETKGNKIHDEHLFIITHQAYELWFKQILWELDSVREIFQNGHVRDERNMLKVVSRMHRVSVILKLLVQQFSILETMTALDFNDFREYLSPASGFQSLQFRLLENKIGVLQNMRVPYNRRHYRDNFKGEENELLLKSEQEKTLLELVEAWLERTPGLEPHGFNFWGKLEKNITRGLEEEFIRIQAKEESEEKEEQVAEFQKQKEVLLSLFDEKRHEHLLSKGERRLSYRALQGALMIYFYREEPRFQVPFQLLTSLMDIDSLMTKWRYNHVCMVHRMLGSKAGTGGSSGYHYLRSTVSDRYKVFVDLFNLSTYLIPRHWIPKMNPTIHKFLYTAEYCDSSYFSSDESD
# test-description: Cell based kynurenine assay, TDO-expressing HEK293 cell clones
# test-parameters: TDO-expressing HEK293 cells, 24 hours incubation; geometric mean; read-out: HEK293 TDO Kynurenine GMean IC50 (μM) (Cellular Assay)
# Procedure: Determine Inhibitor Activity Against IDO or TDO in Cell Based Kynurenine Assay IDO1-expressing or TDO-expressing HEK293 cell clones are generated upon stable transfection of plasmids expressing human IDO or human TDO under the control of CMV promoter. […] Cells were seeded in a 96 well plate in 50 μL of culture media at a density of 2.5×10^4 per well. […] After 24 hours of incubation, the supernatant was transferred to a 384 well reaction plate and the kynurenine level determined. […]
Please respond with reported IC50 for every item in the list.

Request: Reported IC50 for OC(c1c(F)c(Cl)cc2cn[nH]c12)C12CCC(CC1)CC2 (racemic) [Compound P-0294] : what is it?
Response: 0.0001 to 10 µM

Request: May I ask what IC50 has been recorded for OC(c1cccc2cncn12)C1(F)CCC(F)(F)CC1 (stereo not drawn) [Compound P-0062] ?
Response: > 10 µM

Request: # lookup: IC50 of NC(=O)N1CCC(C2(C(O)c3cc(Cl)cc4cn[nH]c34)CC2)CC1 (stereo not drawn) [Compound P-0156]
Response: 0.0001 to 10 µM

Request: # get_value(readout='IC50', item= OCC12CCC(C(O)c3cc(Cl)cc4cn[nH]c34)(CC1)CC2 (stereo not drawn) [Compound P-0328] )
Response: 0.0001 to 10 µM

Request: What IC50 value was documented for this molecule, CC(C)S(=O)(=O)N1CCC(C(C)(C)C(O)c2cc(Cl)cc3cn[nH]c23)CC1 (stereo not drawn) [Compound P-0307] ?
Response: 0.0001 to 10 µM

Request: # get_value(readout='IC50', item= CC1(C(O)c2cc(Br)cc3cn[nH]c23)CCCCC1 (stereo not drawn) [Compound P-0263] )
Response: 0.0001 to 10 µM

Request: Recorded IC50 for O=C(O)C12CCC(C(O)c3cc(Cl)cc4cn[nH]c34)(CC1)CC2 (stereo not drawn) [Compound P-0327] , please?
Response: 0.0001 to 10 µM

Request: // IC50 lookup, key: CC(C)(C1CCN(C(=O)Nc2ccc(Cl)cc2)CC1)C(O)c1cc(Cl)cc2cn[nH]c12 (stereo not drawn) [Compound P-0361]
Response: 0.0001 to 10 µM

Request: I'd like to know its IC50. The molecule in question is CN(C)C(C)(C)C(O)c1cc(Cl)cc2cn[nH]c12 (stereo not drawn) [Compound P-0230]
Response: > 10 µM

Request: // IC50 lookup, key: COC(=O)N1CCC(C(F)(F)C(O)c2c(F)c(Cl)cc3cn[nH]c23)CC1 (stereo not drawn) [Compound P-0342]
Response: 0.0001 to 10 µM

Request: For the molecule COCC(=O)N1CCC(C(F)(F)C(O)c2c(F)c(Cl)cc3cn[nH]c23)CC1 (stereo not drawn) [Compound P-0376] , what IC50 is on record?
Response: 0.0001 to 10 µM

Request: Can you look up the measured IC50 of CC(C)NC(=O)N1CCC(C(C)(C)C(O)c2cc(Cl)cc3cn[nH]c23)CC1 (stereo not drawn) [Compound P-0315] for me?
Response: 0.0001 to 10 µM

Request: I am curious: what IC50 value has been reported for CS(=O)(=O)N1C[C@H]2CC[C@@H](C1)[C@H]2C(F)(F)C(O)c1cc(Cl)cc2cn[nH]c12 (stereo partly drawn) [Compound P-0131] ?
Response: 0.0001 to 10 µM

Request: Entry Nc1nc(C(=O)N2CCC(C3(C(O)c4cc(Cl)cc5cn[nH]c45)CC3)CC2)cs1 (stereo not drawn) [Compound P-0166] has what IC50?
Response: 0.0001 to 10 µM

Request: Look up IC50: OC(c1c2c(cc3cn[nH]c13)CC2)C1(C2CCOCC2)CC1 (stereo not drawn) [Compound P-0277]
Response: > 10 µM

Request: Name the reported IC50 value associated with the molecule CC(C)(C)OC(=O)N1CCC(C(C)(C)[C@@H](O)c2c(F)c(Cl)cc3cn[nH]c23)CC1 [Compound P-0384]
Response: > 10 µM

Request: Would you mind telling me what IC50 value was observed for O=C(C1CC1)N1CCC(C(F)(F)C(O)c2c(F)c(Cl)cc3cn[nH]c23)CC1 (stereo not drawn) [Compound P-0343] ?
Response: 0.0001 to 10 µM

Request: Suppose we examine the molecule CC(C)(C(O)c1cc(Cl)cc2cn[nH]c12)C(F)(F)F (stereo not drawn) [Compound P-0250] ; what IC50 value has been reported?
Response: 0.0001 to 10 µM

Request: Which IC50 is listed for OC(c1c(F)c(Cl)cc2cn[nH]c12)C(F)(F)C1(O)CCC1 (stereo not drawn) [Compound P-0290] ?
Response: 0.0001 to 10 µM

Request: Sample CC(C)(C1CCN(C(=O)Nc2ccccc2F)CC1)C(O)c1cc(Cl)cc2cn[nH]c12 (stereo not drawn) [Compound P-0178] — what was its IC50?
Response: 0.0001 to 10 µM

Request: Quick check: IC50 of CC(C)(C(O)c1cc(Cl)cc2cn[nH]c12)[C@H]1C[C@H]2CC[C@@H](C1)N2C(N)=O (stereo partly drawn) [Compound P-0340] ?
Response: 0.0001 to 10 µM

Request: Sample O=C(Nc1ccc(F)cc1)N1CCC(C2(C(O)c3c(F)c(Cl)cc4cn[nH]c34)CC2)CC1 (stereo not drawn) [Compound P-0164] — what was its IC50?
Response: 0.0001 to 10 µM

Request: IC50 lookup needed for COC12CCC(C(O)c3cc(Cl)cc4cn[nH]c34)(CC1)CC2 (stereo not drawn) [Compound P-0136] , thanks.
Response: 0.0001 to 10 µM

Request: Reported IC50 for OC(c1cc(Cl)c(F)c2cn[nH]c12)C(F)(F)C1CCOCC1 (stereo not drawn) [Compound P-0218] : what is it?
Response: 0.0001 to 10 µM

Request: What value of IC50 has been recorded for this entry: CC1(C(O)c2cc(Cl)cc3cn[nH]c23)CCCCC1 (stereo not drawn) [Compound P-0006]
Response: 0.0001 to 10 µM

Request: Look at this molecule and give its reported IC50. OC1(c2cc(Cl)cc3cn[nH]c23)CC2(CCNCC2)C1 [Compound P-0020]
Response: > 10 µM

Request: I have this molecule here, OC(c1c2c(cc3cn[nH]c13)CC2)C1CC2CCC1C2 (stereo not drawn) [Compound P-0293] , and I need its recorded IC50.
Response: 0.0001 to 10 µM
